Every entry's value here was drawn from patent US20100173834A1.

# EXPERIMENTAL_SYSTEM: UniProt P33032
# Sequence (P33032 whole entry): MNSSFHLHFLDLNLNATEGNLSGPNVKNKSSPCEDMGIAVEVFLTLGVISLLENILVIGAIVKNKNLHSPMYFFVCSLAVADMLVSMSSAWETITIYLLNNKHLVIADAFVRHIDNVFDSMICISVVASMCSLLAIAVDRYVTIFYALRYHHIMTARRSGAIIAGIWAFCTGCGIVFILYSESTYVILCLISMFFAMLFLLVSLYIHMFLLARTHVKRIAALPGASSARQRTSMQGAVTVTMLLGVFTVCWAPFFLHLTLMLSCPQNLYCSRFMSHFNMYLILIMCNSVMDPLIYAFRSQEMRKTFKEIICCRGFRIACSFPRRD
Where a SMILES comes first, the peptide text is derived from it. Bridges are numbered along the chain shown (N, C = ends). [ ]: non-standard residue; d: D form.
ATTRIBUTE_MEASURED: Ki (nM)

• CC(=O)N[C@@H](Cc1ccccc1)C(=O)N[C@@H](CCCNC(=N)N)C(=O)N[C@H]1CSSC[C@@H](C(N)=O)NC(=O)[C@H](Cc2c[nH]c3ccccc23)NC(=O)[C@H](CCCNC(=N)N)NC(=O)[C@@H](Cc2ccccc2)NC(=O)[C@H](Cc2c[nH]cn2)NC(=O)[C@@H](C)NC1=O (Ac-FRC[dA]H[dF]RWC-NH2; disulfide 3-9) = 491
• CC(=O)N[C@@H](Cc1c(F)c(F)c(F)c(F)c1F)C(=O)N[C@@H](CCCNC(=N)N)C(=O)N[C@H]1CSSC[C@@H](C(N)=O)NC(=O)[C@H](Cc2c[nH]c3ccccc23)NC(=O)[C@H](CCCNC(=N)N)NC(=O)[C@@H](Cc2ccccc2)NC(=O)[C@H](Cc2c[nH]cn2)NC(=O)[C@@H](C)NC1=O = 786
• CC(=O)N[C@@H](Cc1ccc2ccccc2c1)C(=O)N[C@@H](CCCNC(=N)N)C(=O)N[C@H]1CSSC[C@@H](C(N)=O)NC(=O)[C@H](Cc2c[nH]c3ccccc23)NC(=O)[C@H](CCCNC(=N)N)NC(=O)[C@@H](Cc2ccccc2)NC(=O)[C@H](Cc2c[nH]cn2)NC(=O)[C@@H](C)NC1=O = 864

---

# EXPERIMENTAL_SYSTEM: human melanocortin 4 receptor (human) (UniProt P32245)
# Sequence (P32245 whole entry): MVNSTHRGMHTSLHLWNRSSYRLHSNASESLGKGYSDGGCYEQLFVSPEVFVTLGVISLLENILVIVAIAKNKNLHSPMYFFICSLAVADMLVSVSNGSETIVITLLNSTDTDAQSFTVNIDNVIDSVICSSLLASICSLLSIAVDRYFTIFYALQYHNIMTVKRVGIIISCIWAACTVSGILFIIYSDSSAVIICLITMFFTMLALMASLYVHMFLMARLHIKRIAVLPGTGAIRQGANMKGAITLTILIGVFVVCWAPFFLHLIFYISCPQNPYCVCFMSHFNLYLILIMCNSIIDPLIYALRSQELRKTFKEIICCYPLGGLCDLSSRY
# PROTOCOL_SUMMARY: competitive displacement of [125I]-NDP-alpha-MSH, membranes of CHO-K1 cells expressing hMC4-R
Threshold 2 nM: Ki strictly smaller gives True, otherwise False.

* Ac-Trp-Arg-c(Cys-D-Ala-His-D-Phe-Arg-Trp-Cys)-NH2 (peptide) | False
* Ac-Phe-Arg-c(Cys-D-Ala-His-D-Phe-Arg-Trp-Cys)-NH2 (peptide) | False
* Ac-1-Nal-Arg-c(Cys-D-Ala-His-D-Phe-Arg-Trp-Cys)-NH2 (peptide) | True

---

# EXPERIMENTAL_SYSTEM: human melanocortin 5 receptor (human) (UniProt P33032)
# PROTOCOL_SUMMARY: competitive displacement of [125I]-NDP-alpha-MSH, membranes of CHO-K1 cells expressing hMC5-R
ATTRIBUTE_MEASURED: Ki (nM)

* Ac-Trp-Arg-c(Cys-D-Ala-His-D-Phe-Arg-Trp-Cys)-NH2 (peptide) | 1470
* Ac-2-Nal-Arg-c(Cys-D-Ala-His-D-Phe-Arg-Trp-Cys)-NH2 (peptide) | 864
* Ac-Pff-Arg-c(Cys-D-Ala-His-D-Phe-Arg-Trp-Cys)-NH2 (peptide) | 786
* Ac-1-Nal-Arg-c(Cys-D-Ala-His-D-Phe-Arg-Trp-Cys)-NH2 (peptide) | 888
* Ac-Phe-Arg-c(Cys-D-Ala-His-D-Phe-Arg-Trp-Cys)-NH2 (peptide) | 491
* Ac-Tyr-Arg-c(Cys-D-Ala-His-D-Phe-Arg-Trp-Cys)-NH2 (peptide) | 714
